Give EC50 (read off the curve) for every item shown.
Target: T1, human SLITRK6 on cells (human, UniProt Q9H5Y7 27-841)
T1 construct: whole, on cells
Assay: flow cytometry on 293F-huSLITRK6 cells, PE-conjugated anti-human Fc

Query: Entry hu1H2-03-LD038 (antibody, V domains shown, drug-linker LD038 conjugated to the antibody; positions not given, also called hu1H2-03-LALA-LD038; hu1H2-03-LD038 (8)) VH: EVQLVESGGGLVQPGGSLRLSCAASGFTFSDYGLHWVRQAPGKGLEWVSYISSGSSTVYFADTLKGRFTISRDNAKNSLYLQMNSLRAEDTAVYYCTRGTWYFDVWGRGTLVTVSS VL: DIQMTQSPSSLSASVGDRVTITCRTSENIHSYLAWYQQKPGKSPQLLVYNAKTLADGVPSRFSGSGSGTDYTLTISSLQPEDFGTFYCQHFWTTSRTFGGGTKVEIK has what EC50 (read off the curve)?
Result: ~1 nM

Query: Proceed to hu1H2-03 with a LALA mutation (hu1H2-03-LALA) (antibody, V domains shown) VH: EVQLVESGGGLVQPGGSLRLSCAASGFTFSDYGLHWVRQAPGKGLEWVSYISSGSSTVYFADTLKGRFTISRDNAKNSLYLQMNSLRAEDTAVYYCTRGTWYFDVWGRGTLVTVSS VL: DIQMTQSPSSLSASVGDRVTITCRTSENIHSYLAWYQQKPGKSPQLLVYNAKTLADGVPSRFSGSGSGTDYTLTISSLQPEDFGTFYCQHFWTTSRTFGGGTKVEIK
Result: ~0.9 nM

Query: What do we get for AGS15E (antibody, V domains shown, drug conjugate; drug-linker and positions not given, also called ADC of Sirtratumab) VH: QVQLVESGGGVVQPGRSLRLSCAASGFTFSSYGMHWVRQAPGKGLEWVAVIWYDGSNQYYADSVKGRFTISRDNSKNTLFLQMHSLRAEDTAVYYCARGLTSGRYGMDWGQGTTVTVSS VL: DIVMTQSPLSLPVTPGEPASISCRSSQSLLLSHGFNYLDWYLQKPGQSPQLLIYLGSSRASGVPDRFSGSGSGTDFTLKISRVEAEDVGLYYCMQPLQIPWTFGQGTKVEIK ?
Result: ~1 nM

Query: Try this binder too: Sirtratumab (antibody, V domains shown, Prior-art benchmark antibody; also called Sirtratuzumab) VH: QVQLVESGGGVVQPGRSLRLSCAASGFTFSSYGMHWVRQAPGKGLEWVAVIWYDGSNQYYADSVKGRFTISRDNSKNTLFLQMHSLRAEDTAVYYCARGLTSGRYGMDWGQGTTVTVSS VL: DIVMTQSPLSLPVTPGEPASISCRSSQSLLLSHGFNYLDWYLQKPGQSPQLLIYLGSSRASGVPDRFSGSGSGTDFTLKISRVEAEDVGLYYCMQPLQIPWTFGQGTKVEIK
Result: ~1 nM
